Biological target: HpNikR Q81A (Helicobacter pylori G27, UniProt A1YSQ9 1-148, Q81A)
Test: fluorescence anisotropy; apo (no Ni); FA: 5 nM DNA, 20 mM Tris pH 7.6, 100 mM NaCl, 3 mM MgSO4, temperature not stated (Ni loading 1.2 eq NiSO4 per monomer at RT). EMSA: 20 mM Tris pH 7.5, 100 mM KCl, 3 mM MgCl2, 0.1% IGEPAL, 5% glycerol, 0.1 mg/ml herring sperm DNA, RT; gel with 800 uM NiSO4 at 4 C
Details: protein: recombinant; tags: none stated; chain copies: 4; label: fluorescein on internal thymine (T14 of strand 1); blunt
Recorded Kd, one value per entry.
A bare number is not enough; add the unit after it.

Reported Kd, binder ureA-perf promoter 32 bp (dsDNA) DNA 1: ATATATTATTAATTCATTTTAAATAATAATTA DNA 2: TAATTATTATTTAAAATGAATTAATAATATAT : ____
1600 nM

Reported Kd, binder ureA promoter 32 bp (FA) (dsDNA) DNA 1: ATATAACACTAATTCATTTTAAATAATAATTA DNA 2: TAATTATTATTTAAAATGAATTAGTGTTATAT : ____
2000 nM
